Where these numbers come from: ChEMBL document CHEMBL3045824

So I've got a bunch of compounds here, and I need their Ki values.
- STUDY_TARGET: Acetylcholine receptor subunit beta-like 2 (Drosophila melanogaster, UniProt P25162)
- Sequence (P25162 whole entry): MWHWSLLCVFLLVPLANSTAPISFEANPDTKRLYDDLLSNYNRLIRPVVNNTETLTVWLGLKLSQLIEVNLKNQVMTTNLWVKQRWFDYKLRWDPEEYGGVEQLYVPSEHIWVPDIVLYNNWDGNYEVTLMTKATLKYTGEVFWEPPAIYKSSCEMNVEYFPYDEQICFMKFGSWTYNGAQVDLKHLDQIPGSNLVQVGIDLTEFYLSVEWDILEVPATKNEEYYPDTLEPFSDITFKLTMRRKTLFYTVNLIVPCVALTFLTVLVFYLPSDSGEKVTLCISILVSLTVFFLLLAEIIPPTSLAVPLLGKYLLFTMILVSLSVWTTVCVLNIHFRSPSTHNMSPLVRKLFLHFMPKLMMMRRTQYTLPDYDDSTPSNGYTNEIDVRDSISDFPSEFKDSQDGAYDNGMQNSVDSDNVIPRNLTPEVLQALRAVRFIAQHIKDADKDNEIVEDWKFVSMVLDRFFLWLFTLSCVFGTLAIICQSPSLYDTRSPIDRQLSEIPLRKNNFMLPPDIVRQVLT
- PROTOCOL_SUMMARY: Binding affinity to Drosophila brain nicotinic acetylcholine receptor assessed as [3H]IMI binding by radioligand binding assay
Provide the reading as a plain figure in nM.

Sure, the documented Ki for `N=C1SCCN1Cc1ccc(Cl)nc1` is 130

Noted for `O=[N+]([O-])/C=C1\NCCN1Cc1ccc(Cl)nc1` : its Ki reads 0.12

The compound listed as Clc1ccc(C2CC3CCC2N3)cn1 (racemic) [EPIBATIDINE] shows Ki equal to 290

// sample `N=C1NCCN1Cc1ccc(Cl)nc1` , its Ki was 1000

Reported Ki of `O=[N+]([O-])NC1=NCCN1Cc1ccc(Cl)nc1` : 3

The value of Ki measured for the compound `N#C/N=C1\SCCN1Cc1ccc(Cl)nc1` turned out to be 1.2

get_value(item= `C/C(=N\C#N)N(C)Cc1ccc(Cl)nc1` , readout=Ki) returns 7.2

Lookup result for `CN1CCC[C@H]1c1cccnc1` ; measured Ki: 2700

---

Kindly supply the reported log10 of Ki values for the records listed here.
- STUDY_TARGET: Neuronal acetylcholine receptor subunit alpha-4 (Gallus gallus, UniProt P09482+P09484)
- Sequence (P09482 whole entry, one chain of several): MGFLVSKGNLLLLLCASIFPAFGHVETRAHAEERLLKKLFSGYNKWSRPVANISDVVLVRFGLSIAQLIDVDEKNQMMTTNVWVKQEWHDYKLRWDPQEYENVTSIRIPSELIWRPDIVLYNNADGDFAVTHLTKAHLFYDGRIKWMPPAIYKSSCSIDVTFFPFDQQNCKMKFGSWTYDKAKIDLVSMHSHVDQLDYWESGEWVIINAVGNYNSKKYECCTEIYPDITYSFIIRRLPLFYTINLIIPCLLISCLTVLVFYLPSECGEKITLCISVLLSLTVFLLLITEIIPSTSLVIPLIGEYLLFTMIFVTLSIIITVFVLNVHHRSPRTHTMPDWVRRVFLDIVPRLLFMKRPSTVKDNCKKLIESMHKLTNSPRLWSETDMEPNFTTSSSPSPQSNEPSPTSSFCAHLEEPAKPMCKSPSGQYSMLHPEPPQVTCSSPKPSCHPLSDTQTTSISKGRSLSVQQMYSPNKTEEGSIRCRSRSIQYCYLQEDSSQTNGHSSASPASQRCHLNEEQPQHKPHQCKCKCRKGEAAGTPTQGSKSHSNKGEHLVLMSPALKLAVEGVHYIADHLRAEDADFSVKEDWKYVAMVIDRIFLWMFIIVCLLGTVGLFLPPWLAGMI
- PROTOCOL_SUMMARY: Binding affinity to recombinant Gallus gallus (chicken) alpha4beta2 nicotinic acetylcholine receptor assessed as [3H]NIC binding by radioligand binding assay
Note the log scale: values are log10 of Ki expressed in µM.

Memo: `N=C1NCCN1Cc1ccc(Cl)nc1` , reported log10 of Ki: -2.66

Summary for this compound, `O=[N+]([O-])/C=C1\NCCN1Cc1ccc(Cl)nc1` : log10 of Ki is -1.22

According to the records, this compound `O=[N+]([O-])NC1=NCCN1Cc1ccc(Cl)nc1` displays log10 of Ki of -0.01

The compound listed as `N#C/N=C1\SCCN1Cc1ccc(Cl)nc1` shows log10 of Ki equal to -0.62

So, `C/C(=N\C#N)N(C)Cc1ccc(Cl)nc1` ? Its log10 of Ki was -0.17

Entry `N=C1SCCN1Cc1ccc(Cl)nc1` , log10 of Ki reported as -2.92

Just so you know, measured log10 of Ki for `CN1CCC[C@H]1c1cccnc1` came out at -2.72

---

Provide the recorded pKi for the entries that follow.
# pKi = -log10(concentration in molar units)

The observed pKi for `N=C1SCCN1Cc1ccc(Cl)nc1` when tested with UniProtKB P58154 stands at 7.80

The molecule `N=C1NCCN1Cc1ccc(Cl)nc1` , when measured on UniProtKB P58154, yielded pKi of 7.74

Case Clc1ccc(C2CC3CCC2N3)cn1 (racemic) [EPIBATIDINE] , UniProtKB P58154, pKi recorded as 9.52

Entry `C/C(=N\C#N)N(C)Cc1ccc(Cl)nc1` under UniProtKB P58154 had pKi of 5.92

---

- STUDY_TARGET: Soluble acetylcholine receptor (Aplysia californica, UniProt Q8WSF8, Y55W)
- PROTOCOL_SUMMARY: Binding affinity to salt water mollusc Aplysia californica AChBP Y55W mutant assessed as [3H]acetamiprid binding by radioligand binding assay
REPORTED_PROPERTY: log10(Ki) (log10 of the value in nM)
Kindly note that the scale is log10 and the underlying Ki is in nM.

Reported log10(Ki) of N=C1SCCN1Cc1ccc(Cl)nc1 [DESCYANOTHIACLOPRID] : -0.22

Sample `O=[N+]([O-])/C=C1\NCCN1Cc1ccc(Cl)nc1` ; log10(Ki) observed: 0.23

Recorded result, CN1CCC[C@H]1c1cccnc1 [NICOTINE] , log10(Ki): 1.48

Form field log10(Ki), entry N#C/N=C1\SCCN1Cc1ccc(Cl)nc1 [THIACLOPRID] : 0.59

For reference, reported log10(Ki) for `C/C(=N\C#N)N(C)Cc1ccc(Cl)nc1` stands at 1.51

// O=[N+]([O-])NC1=NCCN1Cc1ccc(Cl)nc1 [IMIDACLOPRID] : log10(Ki) value = 1.28

Consider N=C1NCCN1Cc1ccc(Cl)nc1 [DESNITROIMIDACLOPRID] . Its measured log10(Ki) is 1.18

// sample Clc1ccc(C2CC3CCC2N3)cn1 (racemic) [EPIBATIDINE] , its log10(Ki) was 0.00
